System: Inhibin beta A chain (activin A)
test: INHBA (activin A) binders on microarrays, primary screen, biochemical, small-molecule microarray, 635 nm fluorescence scan (AID 1107);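 also: mouse activin A protein probed at 4.33 µg/mL on printed slides; score merges bound-protein fluorescence near 667 nm with spot signal-to-noise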
assay-setup: small-molecule microarray binding, higher = more signal
# Lookup of reported composite z-score keyed by entry
endpoint-label: composite z-score

compound	endpoint-label	meas-value
COC(=O)C(CC#Cc1ccc2c(c1)[C@]1(C(=O)N2)[C@H](C(=O)N2CCCCCCC2)[C@H]2C(=O)O[C@H](c3ccccc3)[C@H](c3ccccc3)N2[C@@H]1c1ccc(OCCO)cc1)C(=O)OC	composite z-score	1.73
C=C(COC)/C(=C/C[C@@H](OC(=O)c1ccncc1)c1ccccc1OCCO)c1cnc2ccccc2c1	composite z-score	1.61
C=C1C(=O)C=C2CN(C(=O)c3ccccc3)[C@@](Cc3ccc(F)cc3)(C(=O)OC)[C@@H]12	composite z-score	1.05
COCCOC(=O)N1C(=O)[C@@]2(c3cc(C#CC4(O)CCCCCC4)ccc31)[C@H](C(N)=O)[C@H]1C(=O)O[C@H](c3ccccc3)[C@H](c3ccccc3)N1[C@@H]2c1ccc(OCCO)cc1	composite z-score	0.725
CS(=O)(=O)CCOC(=O)C1=CC(CCCO)=CC(C2CC2)N(Cc2sc3ccccc3c2Cl)C=C1C(=O)OCCS(C)(=O)=O (stereo not drawn)	composite z-score	1.36
COCCCNC(=O)[C@@]1(Cc2ccccc2I)c2ccccc2C(=O)N(C2CCCCC2)[C@H]1c1ccc(CO)cc1	composite z-score	0.123
CC[C@@H]1C=C(C(=O)O)[C@H](c2cccc(Cl)c2)N1S(=O)(=O)c1ccc(C)cc1	composite z-score	0.414
Cc1cccc([C@H]2C[C@H]3C(Br)=C[C@@]2(CO)C(=O)[C@]32CO2)c1	composite z-score	0.55
C=C(CCCC)C(=O)CC[C@H](OC(=O)c1ccccc1-c1ccccc1C(=O)O)c1cccc(OCCO)c1	composite z-score	1.33
O=C1O[C@H](c2ccccc2)[C@H](c2ccccc2)N2[C@H]1[C@@H](C(=O)O)[C@]1(C(=O)Nc3ccc(C#CC4(O)CCCCCC4)cc31)[C@H]2c1ccccc1OCCO	composite z-score	0.745
COCCOC(=O)N1C(=O)[C@@]2(c3cc(C#CC4=CCCCC4)ccc31)[C@H](c1ccc(O)cc1)N1[C@H](c3ccccc3)[C@H](c3ccccc3)OC(=O)[C@H]1[C@@H]2C(=O)N1CCc2cc(OC)c(OC)cc2C1	composite z-score	0.545
CN1C2C=C(c3ccc(CO)cc3)C(C3C(=O)N(C(N)=O)C(=O)C32)C1C1CC1 (stereo not drawn)	composite z-score	-0.586
O=C(NC1CC1)[C@@H]1c2ccccc2C(=O)N(C2CCCCC2)[C@H]1c1ccc(CO)cc1	composite z-score	-0.24
O=C1NC(=O)C2C1C=CC(C(O)C(c1ccccc1)c1ccccc1)N2Nc1ccccn1 (stereo not drawn)	composite z-score	1.32
COc1ccc(C(=O)Nc2ccc(CN3C(=O)[C@]4(O[C@H](CC(=O)N(CCO)Cc5ccccc5)[C@@H]([Si](C)(C)c5ccc(OC)cc5)[C@@H]4C)c4ccccc43)cc2)cc1	composite z-score	0.842
O=C(c1ccccc1)N1Cc2ccccc2C[C@@]2(N=C(c3ccc(OCCCO)cc3)O[C@H]2c2ccccc2)C1=O	composite z-score	-0.395
COC(=O)c1ccc(OC)c(/C=C\CC(OC(=O)c2ccncc2)c2ccccc2)c1 (stereo not drawn)	composite z-score	1.61
COc1cccc(C)c1NC(=O)O[C@H]1[C@H](OC(=O)Nc2ccccc2-c2ccccc2)[C@@H](OC(=O)Nc2ccccc2-c2ccccc2)[C@@H](OC)O[C@@H]1CO	composite z-score	0.601
CCCCCCCCCCC(O)C1C=CC2C(=O)N(C)C(=O)C2N1Nc1ccccc1 (stereo not drawn)	composite z-score	1.17
O=C1c2ccccc2[C@@]2(Cc3ccccc3N(CC(F)(F)F)C2=O)[C@H](c2ccc(CO)cc2)N1Cc1ccccc1	composite z-score	1.32
COC(=O)[C@@]1(Cc2ccc(F)cc2)[C@H]2c3cc(C(=O)N4CCCC4)n(CCc4c[nH]c5cc(F)ccc45)c3C[C@H]2CN1C(=O)c1ccccc1	composite z-score	1.09
COCCOC(=O)N1C(=O)[C@@]2(c3cc(C#CCNC(N)=O)ccc31)[C@H](c1ccc(O)cc1)N1[C@H](c3ccccc3)[C@H](c3ccccc3)OC(=O)[C@H]1[C@@H]2C(=O)N1CCc2cc(OC)c(OC)cc2C1	composite z-score	0.899
CC(C)[Si](C#Cc1ccccc1)(O[C@H](c1ccccc1)c1cn(Cc2ccccc2)nn1)C(C)C	composite z-score	-0.165
CCc1cccc(NC(=O)O[C@H]2[C@H](OC(=O)Nc3ccccc3-c3ccccc3)[C@H](OC(=O)Nc3ccccc3-c3ccccc3)[C@@H](OC)O[C@@H]2CO)c1	composite z-score	0.838
CN(C)CCCC[C@@H]1NC(=O)[C@H]2C[C@@H](C(=O)NCCCCCCNC(=O)CS)[C@@H](c3cccc(OCCO)c3)N2C1=O	composite z-score	-0.364
CO[C@H]1O[C@H](CO)[C@@H](OC(=O)Nc2ccccc2)[C@@H]2OC(=O)[C@@H](Cc3ccccc3)C/C=C/C[C@H](Cc3ccccc3)C(=O)O[C@@H]12	composite z-score	0.983
C=C(C(=O)CC[C@@H](OC(=O)c1ccccc1-c1ccccc1C(=O)O)c1cccc(OCCO)c1)C(C)C	composite z-score	1.06
CCOC(=O)C[C@H]1[C@H](OC(=O)Cc2ccc3c(c2)OCO3)[C@@H](NC(=O)CC(C)C)c2cc(OCCCO)ccc2N1C(=O)c1ccc2ccccc2n1	composite z-score	0.242
